- Test Description: Compound was evaluated for rate enhancement, obtained in the hydrolysis of N-methoxycarbonyl-L-phenylalanine-p-nitrophenylester (Ko = 1.1 x 10 e-3/min); ratio=Kobs/K0
- Format: ADME
Recorded Ratio, one value per entry.
Parameter: Ratio

[[record]]
molecule = "COC1COc2ccccc2CNCCNCCNCc2ccccc2OC1.[O-][Cl+3]([O-])([O-])[O][Zn][O][Cl+3]([O-])([O-])[O-]"
value_observed = 3

[[record]]
molecule = "OC1COc2ccccc2CNCCNCCNCc2ccccc2OC1.[O-][Cl+3]([O-])([O-])[O][Zn][O][Cl+3]([O-])([O-])[O-]"
value_observed = 2.9

[[record]]
molecule = "[O-][Cl+3]([O-])([O-])[O][Zn][O][Cl+3]([O-])([O-])[O-].c1ccc2c(c1)CNCCNCCNCc1ccccc1OCC(Oc1ccc3ccccc3c1)CO2"
value_observed = 4.7

[[record]]
molecule = "[O-][Cl+3]([O-])([O-])[O][Zn][O][Cl+3]([O-])([O-])[O-].c1ccc(OC2COc3ccccc3CNCCNCCNCc3ccccc3OC2)cc1"
value_observed = 3.9


----------
- Test Description: Compound was evaluated for rate enhancement, obtained in the hydrolysis of para-nitrophenyl acetate (Ko = 1.6 x 10 e-4/min); ratio=Kobs/K0
- Assay type: ADME
Parameter: Ratio

[[record]]
molecule = "COC1COc2ccccc2CNCCNCCNCc2ccccc2OC1.[O-][Cl+3]([O-])([O-])[O][Zn][O][Cl+3]([O-])([O-])[O-]"
value_observed = 2.4

[[record]]
molecule = "[O-][Cl+3]([O-])([O-])[O][Zn][O][Cl+3]([O-])([O-])[O-].c1ccc2c(c1)CNCCNCCNCc1ccccc1OCC(Oc1ccc3ccccc3c1)CO2"
value_observed = 2.9

[[record]]
molecule = "[O-][Cl+3]([O-])([O-])[O][Zn][O][Cl+3]([O-])([O-])[O-].c1ccc(OC2COc3ccccc3CNCCNCCNCc3ccccc3OC2)cc1"
value_observed = 2.5

[[record]]
molecule = "OC1COc2ccccc2CNCCNCCNCc2ccccc2OC1.[O-][Cl+3]([O-])([O-])[O][Zn][O][Cl+3]([O-])([O-])[O-]"
value_observed = 1.7

